Values compiled from the supplement of paper PMC3353916.

Task for the reader: assign each of the following sequences its reported percent infected.
Tested on: Sindbis virus TE/5'2J-GFP;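 note: Interferon-defective BHK-21 derivatives, ZAP line overexpressing the rat ZAP N-terminal zinc finger domain fused to Zeocin resistance, GFP scored within live singlet TagRFP+ cells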
Test: percent infected (GFP+ in RFP+ ISG-expressing cells); higher = more infection (less antiviral activity)
Details: experiment: confirmatory screen 3; BHK/HA-Zeo (control)
Give the quantity in %, number only.

Asked: Consider the sequence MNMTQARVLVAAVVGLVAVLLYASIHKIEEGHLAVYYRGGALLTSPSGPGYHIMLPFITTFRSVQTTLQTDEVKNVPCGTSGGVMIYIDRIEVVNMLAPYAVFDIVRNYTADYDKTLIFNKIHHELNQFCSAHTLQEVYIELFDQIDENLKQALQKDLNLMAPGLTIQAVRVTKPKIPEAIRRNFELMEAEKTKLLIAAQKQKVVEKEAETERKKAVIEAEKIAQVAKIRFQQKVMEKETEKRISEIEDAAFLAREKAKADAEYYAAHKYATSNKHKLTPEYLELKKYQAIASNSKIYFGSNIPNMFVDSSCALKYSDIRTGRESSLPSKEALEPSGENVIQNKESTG [ERLIN1] and give its recorded percent infected.
Given back: 91.7

Asked: Provide measured percent infected value, entry: MERISAFFSSIWDTILTKHQEGIYNTICLGVLLGLPLLVIITLLFICCHCCWSPPGKRGQQPEKNKKKKKKKKKKDEEDLWISAQPKLLQMEKRPSLPV [KIAA0040]
Given back: 87.2

Asked: Specify reported percent infected for the sequence shown: MKVSAAALAVILIATALCAPASASPYSSDTTPCCFAYIARPLPRAHIKEYFYTSGKCSNPAVVFVTRKNRQVCANPEKKWVREYINSLEMS [CCL5]
Given back: 92.9
